Taken from paper PMC6278366.

Reported IC50 values are given for each entry in this list.
Test system: normal human fibroblasts
assay-remarks: Cytotoxicity assay (7-AAD viability, flow cytometry), normal fibroblasts
Assay type: cell-based
protocol-conditions: Homo sapiens, Fibroblast, mean ± SE, at least three experiments in duplicate
Protocol: Cells (Jurkat, K562, U937, HeLa, HEK293 and normal Fibroblasts) were purchased from Russian Cell Culture Collection (Institute of Cytology of the Russian Academy of Sciences, Saint Petersburg, Russia) and cultured according to standard mammalian tissue culture protocols and sterile technique. Human cell lines HEK293 and HeLa were obtained from the HPA Culture Collections (Salisbury, UK). All cell lines used in the study were tested and shown to be free of mycoplasma and viral contamination. […]

compound	IC50 [µM]
C[C@H]1[C@H](C)CC[C@]2(C(=O)O)CC[C@]3(C)C(=CC[C@@H]4[C@@]5(C)CC[C@H](O)C(C)(C)[C@@H]5CC[C@]43C)[C@H]12 [UA, ursolic acid, reference compound]	324
CC(=O)O[C@H]1CC[C@@]2(C)C(CC[C@]3(C)C2CCC2C4C(C(C)C)CC[C@]4(C(=O)OCC(N)(CO)CO)CC[C@]23C)C1(C)C (some centres unmarked) [Compound 15]	31
CC(C)C1CC[C@]2(C(=O)NCCCCNC(=N)N)CC[C@]3(C)C(CCC4[C@@]5(C)CC[C@H](O)C(C)(C)C5CC[C@]43C)C12 (some centres unmarked) [Compound 14]	96
CC(=O)O[C@H]1CC[C@@]2(C)C(CC[C@]3(C)C2CCC2C4C(C(C)C)CC[C@]4(C(=O)NCCNC(=N)N)CC[C@]23C)C1(C)C (some centres unmarked) [Compound 10b]	354
CC(C)[C@@H]1CC[C@]2(C(=O)O)CC[C@]3(C)[C@H](CC[C@@H]4[C@@]5(C)CC[C@H](O)C(C)(C)[C@@H]5CC[C@]43C)[C@@H]12 [Dihydro BA, 20,29-dihydrobetulinic acid, reference compound]	517
CC(=O)O[C@H]1CC[C@@]2(C)C(CC[C@]3(C)C2CCC2C4C(C(C)C)CC[C@]4(C(=O)NCCN)CC[C@]23C)C1(C)C (some centres unmarked) [Compound 5]	5.3
CC(=O)O[C@H]1CC[C@@]2(C)C(CC[C@]3(C)C2CC=C2C4[C@@H](C)[C@H](C)CC[C@]4(C(=O)OCC(CO)(CO)NC(=N)N)CC[C@]23C)C1(C)C (single isomer, unassigned) [Compound 18b]	47
CC(=O)O[C@H]1CC[C@@]2(C)C(CC[C@]3(C)C2CCC2C4C(C(C)C)CC[C@]4(C(=O)NCCCN4CCN(CCCN)CC4)CC[C@]23C)C1(C)C (some centres unmarked) [Compound 8a]	7.3
CC(=O)O[C@H]1CC[C@@]2(C)C(CC[C@]3(C)C2CCC2C4C(C(C)C)CC[C@]4(C(=O)NCCN(CCNC(=N)N)CCNC(=N)N)CC[C@]23C)C1(C)C (single isomer, unassigned) [Compound 12a]	149
CC(=O)O[C@H]1CC[C@@]2(C)C(CC[C@]3(C)C2CCC2C4C(C(C)C)CC[C@]4(C(=O)OCC(CO)(CO)NC(=N)N)CC[C@]23C)C1(C)C (some centres unmarked) [Compound 15c]	27
CC(C)C1CC[C@]2(C(=O)NCCCCN)CC[C@]3(C)C(CCC4[C@@]5(C)CCC(=O)C(C)(C)C5CC[C@]43C)C12 (some centres unmarked) [Compound 4, N-(4-Aminobuthyl)-3-oxolupane-28-amide]	3.4

###

IC50 overview
System: HeLa (cervical cancer) cells
assay-remarks: Cytotoxicity assay (7-AAD viability, flow cytometry), HeLa
Format: cell-based, human
protocol-conditions: Homo sapiens, HeLa, mean ± SE, at least three experiments in duplicate; viable cells
assay-readout: IC50 (µM)

compound	value-observed
CC(C)C1CC[C@]2(C(=O)NCCCCN)CC[C@]3(C)C(CCC4[C@@]5(C)CCC(=O)C(C)(C)C5CC[C@]43C)C12 (stereo partly drawn) [Compound 4, N-(4-Aminobuthyl)-3-oxolupane-28-amide]	2.8
CC(=O)O[C@H]1CC[C@@]2(C)C(CC[C@]3(C)C2CCC2C4C(C(C)C)CC[C@]4(C(=O)NCCN)CC[C@]23C)C1(C)C (stereo partly drawn)	3.9
CC(C)C1CC[C@]2(C(=O)NCCCCNC(=N)N)CC[C@]3(C)C(CCC4[C@@]5(C)CCC(=O)C(C)(C)C5CC[C@]43C)C12 (stereo partly drawn)	81

###

Test system: normal human fibroblasts
assay-remarks: Cytotoxicity assay (7-AAD viability, flow cytometry), normal fibroblasts
Assay type: cell-based
protocol-conditions: Homo sapiens, Fibroblast, mean ± SE, at least three experiments in duplicate
assay-readout: IC50 (µM)

molecule	assay-readout	value-observed
CC(=O)O[C@H]1CC[C@@]2(C)C(CC[C@]3(C)C2CCC2C4C(C(C)C)CC[C@]4(C(=O)NCCCCN)CC[C@]23C)C1(C)C (stereo partly drawn)	IC50	8.3
CC(=O)O[C@H]1CC[C@@]2(C)C(CC[C@]3(C)C2CCC2C4C(C(C)C)CC[C@]4(C(=O)NCCCCNC(=N)N)CC[C@]23C)C1(C)C (stereo partly drawn) [Compound 11b]	IC50	117
CC(=O)O[C@H]1CC[C@@]2(C)C(CC[C@]3(C)C2CC=C2C4CC(C)(C)CC[C@]4(C(=O)OCC(CO)(CO)NC(=N)N)CC[C@]23C)C1(C)C (stereo partly drawn) [Compound 20b]	IC50	49

###

Quick list: IC50 per entry.
Tested on: HEK293 (embryonic kidney) cells
assay-remarks: Cytotoxicity assay (7-AAD viability, flow cytometry), HEK293
Assay type: cell-based, human
protocol-conditions: mean ± SE, at least three experiments in duplicate; viable cells

compound	system-tested	IC50 / µM
CC(=O)O[C@H]1CC[C@@]2(C)C(CC[C@]3(C)C2CC=C2C4CC(C)(C)CC[C@]4(C(=O)OCC(CO)(CO)NC(=N)N)CC[C@]23C)C1(C)C (stereo partly drawn) [Compound 20c]	HEK293 (embryonic kidney) cells	19
CC(=O)O[C@H]1CC[C@@]2(C)C(CC[C@]3(C)C2CCC2C4C(C(C)C)CC[C@]4(C(=O)NCCN(CCNC(=N)N)CCNC(=N)N)CC[C@]23C)C1(C)C (single isomer, unassigned) [Compound 12b]	HEK293 (embryonic kidney) cells	68
CC(=O)O[C@H]1CC[C@@]2(C)C(CC[C@]3(C)C2CC=C2C4[C@@H](C)[C@H](C)CC[C@]4(C(=O)OCC(CO)(CO)NC(=N)N)CC[C@]23C)C1(C)C (single isomer, unassigned) [Compound 18c]	HEK293 (embryonic kidney) cells	14

###

Tested on: Jurkat (T-lymphoblastic leukemia) cells
assay-remarks: cells
Assay type: cell-based
protocol-conditions: Homo sapiens, Jurkat, mean ± SE, at least three experiments in duplicate; viable cells; read-out: IC50 Jurkat
pIC50: −log10 of the molar value.
Parameter pIC50: see the listing below.
assay-readout: pIC50

molecule	assay-readout	value-observed
CC(=O)O[C@H]1CC[C@@]2(C)C(CC[C@]3(C)C2CC=C2C4[C@@H](C)[C@H](C)CC[C@]4(C(=O)OCC(CO)(CO)NC(=N)N)CC[C@]23C)C1(C)C (single isomer, unassigned) [Compound 18b]	pIC50	5.17
CC(C)C1CC[C@]2(C(=O)NCCCCN)CC[C@]3(C)C(CCC4[C@@]5(C)CCC(=O)C(C)(C)C5CC[C@]43C)C12 (stereo partly drawn) [Compound 4, N-(4-Aminobuthyl)-3-oxolupane-28-amide]	pIC50	5.85
CC(=O)O[C@H]1CC[C@@]2(C)C(CC[C@]3(C)C2CC=C2C4CC(C)(C)CC[C@]4(C(=O)OCC(CO)(CO)NC(=N)N)CC[C@]23C)C1(C)C (stereo partly drawn) [Compound 20b]	pIC50	5.17
CC(=O)O[C@H]1CC[C@@]2(C)C(CC[C@]3(C)C2CCC2C4C(C(C)C)CC[C@]4(C(=O)NCCCCNC(=N)N)CC[C@]23C)C1(C)C (stereo partly drawn) [Compound 11b]	pIC50	4.80
CC(=O)O[C@H]1CC[C@@]2(C)C(CC[C@]3(C)C2CCC2C4C(C(C)C)CC[C@]4(C(=O)NCCCN4CCN(CCCN)CC4)CC[C@]23C)C1(C)C (stereo partly drawn) [Compound 8a]	pIC50	5.35
CC(=O)O[C@H]1CC[C@@]2(C)C(CC[C@]3(C)C2CCC2C4C(C(C)C)CC[C@]4(C(=O)NCCNC(=N)N)CC[C@]23C)C1(C)C (stereo partly drawn) [Compound 10b]	pIC50	4.17
